# Target Under Test: T1, full length human tau protein (2N4R, isoform Tau-F, 441 amino acids) (human, UniProt P10636 1-758)
# T1 construct: also called hT40; htau40
# T1 sequence (P10636 other isoform, or with tags, fused parts or gaps limits assumed): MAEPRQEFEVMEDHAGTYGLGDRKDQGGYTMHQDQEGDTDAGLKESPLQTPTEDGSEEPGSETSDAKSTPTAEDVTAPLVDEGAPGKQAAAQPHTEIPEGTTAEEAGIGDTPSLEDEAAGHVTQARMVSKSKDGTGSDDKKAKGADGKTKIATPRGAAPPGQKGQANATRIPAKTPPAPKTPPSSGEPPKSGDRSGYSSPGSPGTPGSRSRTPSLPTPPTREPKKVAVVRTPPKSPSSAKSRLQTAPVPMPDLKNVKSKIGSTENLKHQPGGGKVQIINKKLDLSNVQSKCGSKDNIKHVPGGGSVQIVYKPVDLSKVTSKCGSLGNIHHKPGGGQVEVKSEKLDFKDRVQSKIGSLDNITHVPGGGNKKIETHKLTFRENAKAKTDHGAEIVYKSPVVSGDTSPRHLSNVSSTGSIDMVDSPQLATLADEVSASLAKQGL
# Procedure Details: sandwich ELISA, S1D12 mAb capture, hT40 titrated, detection scAb, chemiluminescent
Recorded Metric: LoD (ng/ml) chemiluminescence detection
Answer shape: numeric part, then the unit.

# binder S1G2 scAb (scFv, not shown: human C kappa domain and hexa-His tag of the scAb format) scFv: QVQLQESGPSLVKPSQTLSLTCTVSGFSLTSNSVGWVRQAPGKAPEWVAGIDTDGEEGYNPALNSRLSITRDTSKSQVSLSLSSVTSEDTAVYYCGRSYRADGLAYGYVQAIDYWGPGLLVTVSSEGKSSGASGESKVDDQAVVTQPSSVSGSLGQRVSITCSGSFIGISSVGWFQQLPGSGLRTIIVASDGRPSGVPDRFSMSKSGNTATLTISSLQAEDEADYFCGSSDRTPYTGVFGSGTRLTVLG ; its LoD (ng/ml) chemiluminescence detection = 0.12 ng/mL

Where do these numbers come from? They come from patent US20230257452A1.
